system: Hs746T cells; assay: Cell proliferation inhibition assay; format: cell-based; settings: Homo sapiens, 72 h, read-out: IC50 Hs746T, c-MET-sensitive, 72 h
reported.property: IC50 (nM)
Express it in nM; write the number only.

// lookup IC50 for CN1CCC(COc2cnc(-c3cccc(Cn4nc(-c5cccc(C#N)c5)ccc4=O)c3)nc2)CC1 [Tepotinib]
2.63

Provenance of the data: paper PMC10326257
